Catalogue of gMFIr Human CD56 int. NK readings, one per entry.
Biological target: T1, human PVRIG on cells (human, UniProt Q6DKI7 1-326)
T1 construct: whole, on cells; over-expressed on HEK cells or endogenous on Jurkat and CD8 T cells; also called hPVRIG; HEK hPVRIG cells
T1 sequence (looked up): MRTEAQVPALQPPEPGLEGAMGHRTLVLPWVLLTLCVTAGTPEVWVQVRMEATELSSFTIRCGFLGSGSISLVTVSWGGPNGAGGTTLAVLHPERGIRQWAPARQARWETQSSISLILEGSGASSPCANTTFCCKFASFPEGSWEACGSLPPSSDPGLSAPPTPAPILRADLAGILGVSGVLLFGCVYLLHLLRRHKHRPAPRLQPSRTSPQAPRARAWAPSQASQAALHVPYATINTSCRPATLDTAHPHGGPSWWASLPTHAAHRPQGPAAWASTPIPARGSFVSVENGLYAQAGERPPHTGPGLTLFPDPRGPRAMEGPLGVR
Experiment: FACS, human PBMC, CD56 int. NK cells, 10ug/ml
Metric: gMFIr Human CD56 int. NK

• CHA.7.514 (antibody, V domains shown) VH: EVQLRQSGADLVKPGASVKLSCTASGFNIKDTYIDWVKQRPEQGLDWIGRIDPANGNTKYDPKFQGKATIITDTSSNTAYLQLSNLTSEDTAVYYCARYGSYPYFDYWGRGTTLAVSS VL: SIVMTQTPKFLLISAGDRVTITCKASQSVRNDVAWYQQKPGQSPKLLMYYASNRYTGVPDRFTGSGYGTDFTFTISTVQAEDLAVYFCQQDYSSPPTFGGGTKLEIK = 4.16
• CHA.7.512 (antibody, V domains shown) VH: QIQLVQSGPELKKPRETVKISCKASGYTFTDYSMHWVKQAPGKGLKWMGWINTETGEPTYADDFKGRFAFSLEASASSAYLQINILKDEDTATYFCARSRGGYYEDYYALDYWGQGTSVTVSS VL: DIQMTQSPASLSASVGESVTITCRASGNIHYYLAWYQQKQGKSPQLLVYNAKNLADGVPSRFSGSGSGTQFSLKINSLQPEDFGSYYCQHFWISPPTFGGGTKLEIK = 1.3
• CHA.7.508 (antibody, V domains shown) VH: EVQLQQSGPDLVKPGASMKISCKASGYTFIDYNIHWVKQSQGKSLDWIGYIYPYNGGTGYNQKFKNKATLTVDSSSSTAYMEVRSLTFEDSAVYFCAREADYYGNRGQFDYWGQGTLVTVSA VL: DIQMTQSPASLSVSVGETVTITCRASENIFSNLAWYQQKQGKSPQLLVYGEANLADGVPSRFSGSGSGTQYSLKINSLQSEDFGNYYCQHFWGTPYTFGGGTTLEIK = 3.6
